biological target: full-length ATR (Homo sapiens); construct: in the presence of 5 nM full-length ATR; test: ATR Inhibition Assay (radioactive-phosphate incorporation); conditions: Ki(app); 5 nM full-length ATR, 10 μM ATP, 800 μM target peptide, 25° C.
pKi: −log10 of the molar value.
measured.metric: pKi

// below: answered compounds
- compound: "CCS(=O)(=O)N1CCN(c2cnc(N)c(-c3nc4ccccc4n3C)n2)CC1 [Compound I-15]"
  measured.metric: "pKi"
  reported.result: "6.00 to 7.00"
- compound: "Cc1ccc2nc(-c3nc(C4=CCN(S(=O)(=O)N(C)C)CC4)cnc3N)[nH]c2c1 [Compound I-23]"
  measured.metric: "pKi"
  reported.result: "> 7.00"
- compound: "Nc1ncc(N2CCN(C(=O)OCc3ccccc3)CC2)nc1-c1nnc(-c2ccccc2)o1 [Compound I-255]"
  measured.metric: "pKi"
  reported.result: "5.00 to 6.00"

Request the reported pKi associated with Nc1ncc(N2CCNCC2)nc1-c1nc2ccccc2[nH]1 [Compound I-40]
5.00 to 6.00

Request the reported pKi associated with Nc1ncc(N2CCN(S(=O)(=O)C3CCCC3)CC2)nc1C(=O)Nc1ccccn1 [Compound I-248]
6.00 to 7.00

Request the reported pKi associated with Nc1ncc(N2CCN(S(=O)(=O)c3ccoc3)CC2)nc1C(=O)Nc1ccccn1 [Compound I-119]
6.00 to 7.00

Request the reported pKi associated with CNCc1ccc(-c2nnc(-c3nc(N4C[C@@H]5C(C(=O)O)[C@@H]5C4)cnc3N)o2)cc1 (some centres unmarked) [Compound I-349]
6.00 to 7.00

Request the reported pKi associated with CC(C)C(=O)N1CC=C(c2cnc(N)c(-c3nnc(-c4ccccc4)o3)n2)CC1 [Compound I-192]
> 7.00

Request the reported pKi associated with Cc1ccc2nc(-c3nc(N4CCN(c5ncccc5C(F)(F)F)CC4)cnc3N)[nH]c2c1 [Compound I-52]
5.00 to 6.00

Request the reported pKi associated with CC(C)C(=O)N1CCN(c2cnc(N)c(-c3nc4ccccc4[nH]3)n2)CC1 [Compound I-199]
5.00 to 6.00

Request the reported pKi associated with CCS(=O)(=O)N1CCN(c2cnc(N)c(-c3cc4ccccc4s3)n2)CC1 [Compound I-59]
6.00 to 7.00

Request the reported pKi associated with Nc1ncc(N2CCN(C(=O)c3c(F)cccc3F)CC2)nc1C(=O)Nc1ccccn1 [Compound I-149]
6.00 to 7.00

Request the reported pKi associated with Nc1ncc(N2CCN(C(=O)COc3ccccc3)CC2)nc1-c1nnc(-c2ccccc2)o1 [Compound I-195]
5.00 to 6.00

Request the reported pKi associated with Nc1ncc(N2CCN(C(=O)C3CCCCC3)CC2)nc1-c1nnc(-c2ccccc2)o1 [Compound I-251]
6.00 to 7.00

Request the reported pKi associated with Nc1ncc(N2CCN(C(=O)c3ccccn3)CC2)nc1C(=O)Nc1ccccn1 [Compound I-148]
5.00 to 6.00

Request the reported pKi associated with CCS(=O)(=O)N1CCN(c2cnc(N)c(-c3cc4ccccc4o3)n2)CC1 [Compound I-29]
6.00 to 7.00

Request the reported pKi associated with CCS(=O)(=O)N1CC2CN(c3cnc(N)c(-c4nc5ccccc5[nH]4)n3)CC2C1 (centres unmarked) [Compound I-295]
5.00 to 6.00

Request the reported pKi associated with Nc1ncc(N2CCN(S(=O)(=O)c3c(F)cccc3F)CC2)nc1-c1nnc(-c2ccccc2)o1 [Compound I-202]
6.00 to 7.00

Request the reported pKi associated with CS(=O)(=O)CCN1CCN(c2cnc(N)c(-c3nnc(-c4ccccc4)o3)n2)CC1 [Compound I-296]
6.00 to 7.00

Request the reported pKi associated with CC(C)(C)C(=O)N1CCN(c2cnc(N)c(C(=O)Nc3ccccn3)n2)CC1 [Compound I-209]
5.00 to 6.00

Request the reported pKi associated with Nc1ncc(N2CCN(C(=O)COc3ccccc3)CC2)nc1-c1nc2ccccc2[nH]1 [Compound I-273]
5.00 to 6.00

Request the reported pKi associated with CC(C)C(=O)N1CC=C(c2cnc(N)c(-c3nc4ccccc4[nH]3)n2)CC1 [Compound I-293]
6.00 to 7.00

Request the reported pKi associated with CCS(=O)(=O)N1CCN(c2cnc(N)c(-c3nnc(-c4ccc(F)cc4)o3)n2)CC1 [Compound I-292]
6.00 to 7.00

Request the reported pKi associated with CCS(=O)(=O)N1CCN(c2cnc(N)c(-c3noc(C)n3)n2)CC1 [Compound I-38]
5.00 to 6.00

Request the reported pKi associated with CS(=O)(=O)N1CCN(c2cnc(N)c(-c3nc4ccccc4[nH]3)n2)CC1 [Compound I-86]
6.00 to 7.00

###

Listing of entries alongside the reported Ki.
target: full-length ATR (Homo sapiens); construct: in the presence of 5 nM full-length ATR; test: ATR Inhibition Assay (radioactive-phosphate incorporation); conditions: Ki(app); 5 nM full-length ATR, 10 μM ATP, 800 μM target peptide, 25° C.

// below: answered molecules
- query.smiles: "Cn1cnc(S(=O)(=O)N2CC=C(c3cnc(N)c(-c4nnc(-c5ccccc5)o4)n3)CC2)c1"
  Ki: "< 100 nM"
- query.smiles: "Nc1ncc(N2CCN(C(=O)N3CCCC3)CC2)nc1-c1nnc(-c2ccccc2)o1"
  Ki: "100 to 1000 nM"

Continue with the molecule presented below.
Request the reported Ki associated with CCS(=O)(=O)N1CCN(c2cnc(N)c(-c3nnc(-c4ccccc4C)o3)n2)CC1
100 to 1000 nM

###

target: full-length ATR (Homo sapiens, UniProt Q13535); construct: in the presence of 5 nM full-length ATR; assay: ATR Inhibition Assay (radioactive-phosphate incorporation); conditions: Ki(app); 5 nM full-length ATR, 10 μM ATP, 800 μM target peptide, 25° C.
Sequence (Q13535 whole entry): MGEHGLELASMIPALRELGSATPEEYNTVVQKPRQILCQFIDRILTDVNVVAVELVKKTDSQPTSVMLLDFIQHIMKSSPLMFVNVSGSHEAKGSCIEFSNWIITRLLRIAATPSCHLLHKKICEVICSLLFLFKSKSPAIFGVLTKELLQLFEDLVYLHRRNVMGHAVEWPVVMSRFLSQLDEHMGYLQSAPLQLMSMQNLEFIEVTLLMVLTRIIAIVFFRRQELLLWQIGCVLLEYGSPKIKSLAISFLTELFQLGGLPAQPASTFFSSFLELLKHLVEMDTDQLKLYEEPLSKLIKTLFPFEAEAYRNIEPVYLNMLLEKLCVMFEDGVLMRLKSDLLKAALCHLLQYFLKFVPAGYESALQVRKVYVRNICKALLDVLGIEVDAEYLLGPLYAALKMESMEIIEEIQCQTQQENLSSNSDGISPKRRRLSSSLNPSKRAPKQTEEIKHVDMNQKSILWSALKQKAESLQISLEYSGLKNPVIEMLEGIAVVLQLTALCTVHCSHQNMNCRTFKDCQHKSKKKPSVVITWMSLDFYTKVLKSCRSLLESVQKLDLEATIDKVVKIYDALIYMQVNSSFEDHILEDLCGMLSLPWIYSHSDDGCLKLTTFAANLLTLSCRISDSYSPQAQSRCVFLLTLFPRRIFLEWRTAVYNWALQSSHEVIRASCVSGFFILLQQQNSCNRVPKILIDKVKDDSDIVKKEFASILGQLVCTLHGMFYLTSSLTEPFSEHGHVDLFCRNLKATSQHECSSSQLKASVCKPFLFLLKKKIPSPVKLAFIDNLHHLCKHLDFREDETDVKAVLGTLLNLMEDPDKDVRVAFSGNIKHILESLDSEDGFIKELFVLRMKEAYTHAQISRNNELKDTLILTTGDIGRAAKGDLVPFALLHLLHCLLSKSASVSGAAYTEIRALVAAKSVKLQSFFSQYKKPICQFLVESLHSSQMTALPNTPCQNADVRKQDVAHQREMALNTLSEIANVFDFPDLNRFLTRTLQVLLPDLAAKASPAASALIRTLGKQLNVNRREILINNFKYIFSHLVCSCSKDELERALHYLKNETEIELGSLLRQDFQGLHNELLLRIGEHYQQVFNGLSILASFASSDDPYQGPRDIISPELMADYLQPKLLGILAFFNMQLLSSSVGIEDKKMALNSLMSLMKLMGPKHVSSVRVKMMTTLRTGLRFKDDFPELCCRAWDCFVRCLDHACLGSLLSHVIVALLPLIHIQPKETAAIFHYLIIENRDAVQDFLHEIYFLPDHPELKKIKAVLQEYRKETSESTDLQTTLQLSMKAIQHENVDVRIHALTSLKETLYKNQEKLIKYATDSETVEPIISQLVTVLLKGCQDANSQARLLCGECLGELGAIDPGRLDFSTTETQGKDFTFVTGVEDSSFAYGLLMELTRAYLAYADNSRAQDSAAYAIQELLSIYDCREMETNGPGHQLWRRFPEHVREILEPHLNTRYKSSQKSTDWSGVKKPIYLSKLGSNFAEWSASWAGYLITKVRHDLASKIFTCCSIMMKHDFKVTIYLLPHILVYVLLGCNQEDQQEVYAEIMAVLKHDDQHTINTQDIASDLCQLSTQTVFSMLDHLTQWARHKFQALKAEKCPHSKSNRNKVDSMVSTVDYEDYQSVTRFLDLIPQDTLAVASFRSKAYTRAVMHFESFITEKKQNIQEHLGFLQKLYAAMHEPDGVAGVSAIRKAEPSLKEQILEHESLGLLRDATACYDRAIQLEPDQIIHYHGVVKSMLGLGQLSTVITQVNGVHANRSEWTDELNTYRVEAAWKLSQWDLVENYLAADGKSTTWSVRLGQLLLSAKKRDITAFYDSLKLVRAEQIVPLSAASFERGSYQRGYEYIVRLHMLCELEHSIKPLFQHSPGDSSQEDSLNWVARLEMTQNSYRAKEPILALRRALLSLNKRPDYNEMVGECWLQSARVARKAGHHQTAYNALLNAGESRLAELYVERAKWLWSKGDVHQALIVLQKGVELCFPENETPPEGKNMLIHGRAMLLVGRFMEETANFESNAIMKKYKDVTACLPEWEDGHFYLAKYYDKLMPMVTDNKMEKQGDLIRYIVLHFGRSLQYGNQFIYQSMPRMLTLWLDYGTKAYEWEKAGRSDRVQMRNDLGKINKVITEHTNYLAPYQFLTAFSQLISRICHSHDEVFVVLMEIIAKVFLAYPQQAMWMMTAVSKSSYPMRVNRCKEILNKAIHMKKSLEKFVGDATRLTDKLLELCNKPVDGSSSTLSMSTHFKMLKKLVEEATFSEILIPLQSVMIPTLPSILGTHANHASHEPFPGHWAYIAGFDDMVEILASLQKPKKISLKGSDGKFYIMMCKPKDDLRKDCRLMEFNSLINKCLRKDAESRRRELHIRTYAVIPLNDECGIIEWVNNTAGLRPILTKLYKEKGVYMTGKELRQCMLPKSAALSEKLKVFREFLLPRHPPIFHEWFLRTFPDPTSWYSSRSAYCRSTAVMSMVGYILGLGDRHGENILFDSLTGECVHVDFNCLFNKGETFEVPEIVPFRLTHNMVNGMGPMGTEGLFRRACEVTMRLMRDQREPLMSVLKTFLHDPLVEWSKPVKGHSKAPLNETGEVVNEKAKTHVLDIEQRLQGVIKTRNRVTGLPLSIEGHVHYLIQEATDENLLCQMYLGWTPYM
measured.metric: Ki

- molecule: "CCC(=O)N1C[C@@H]2C[C@@H]1CN2c1cnc(N)c(-c2nnc(-c3ccc(CNC)cc3)o2)n1 [Compound I-334]"
  target: "full-length ATR (Homo sapiens, UniProt Q13535)"
  Ki: "100 to 1000 nM"

Request the reported Ki associated with COC(=O)N1CCN(c2cnc(N)c(C(=O)Nc3ccccn3)n2)CC1 [Compound I-242]
1000 to 10000 nM

Request the reported Ki associated with Nc1ncc(N2CCN(C(=O)N3CCCC3)CC2)nc1-c1nc2ccccc2[nH]1 [Compound I-267]
1000 to 10000 nM

###

biological target: full-length ATR (Homo sapiens); construct: in the presence of 5 nM full-length ATR; test: ATR Inhibition Assay (radioactive-phosphate incorporation); conditions: Ki(app); 5 nM full-length ATR, 10 μM ATP, 800 μM target peptide, 25° C.
pKi: −log10 of the molar value.
measured.metric: pKi

- molecule: "CCOC(=O)N1CCN(c2cnc(N)c(C(=O)Nc3ccccn3)n2)CC1"
  measured.metric: "pKi"
  reported.result: "5.00 to 6.00"
- molecule: "NCCC(=O)N1CC=C(c2cnc(N)c(-c3nc4ccccc4[nH]3)n2)CC1"
  measured.metric: "pKi"
  reported.result: "6.00 to 7.00"
- molecule: "CNCc1ccc(-c2nnc(-c3nc(N4CC[C@@H](CNC(C)=O)C4)cnc3N)o2)cc1"
  measured.metric: "pKi"
  reported.result: "> 7.00"

Request the reported pKi associated with CNCc1ccc(-c2nnc(-c3nc(N4C[C@H]5CCC(OS(C)(=O)=O)[C@H]5C4)cnc3N)o2)cc1 (stereo partly shown)
> 7.00

Request the reported pKi associated with Nc1ncc(N2CCN(C(=O)C3CCC3)CC2)nc1-c1nc2ccccc2[nH]1
5.00 to 6.00

Request the reported pKi associated with CNC(=O)C1CCN(c2cnc(N)c(-c3nc4ccc(C)cc4[nH]3)n2)CC1
5.00 to 6.00

Request the reported pKi associated with CCS(=O)(=O)N1CCN(c2cnc(N)c(-c3cc(-c4ccccc4)ncn3)n2)CC1
6.00 to 7.00

Request the reported pKi associated with Nc1ncc(N2CCN(C(=O)OCc3ccccc3)CC2)nc1C(=O)Nc1ccccn1
5.00 to 6.00

Request the reported pKi associated with Nc1ncc(N2CCN(S(=O)(=O)C3CC3)CC2)nc1C(=O)Nc1ccccn1
6.00 to 7.00

Request the reported pKi associated with Nc1ncc(N2C[C@@H]3CCC(=O)[C@@H]3C2)nc1-c1nnc(-c2ccccc2)o1
6.00 to 7.00

Request the reported pKi associated with Nc1ncc(C2=CCN(C(=O)C3CCCCC3)CC2)nc1-c1nc2ccccc2[nH]1
> 7.00

Request the reported pKi associated with CNCc1ccc(-c2nnc(-c3nc(C4=CCC(C)CC4)cnc3N)o2)cc1 (stereo not shown)
6.00 to 7.00

Request the reported pKi associated with Nc1ncc(N2CCN(Cc3ccccc3)CC2)nc1-c1nnc(-c2ccccc2)o1
5.00 to 6.00

Request the reported pKi associated with Nc1ncc(C2=CCN(S(=O)(=O)c3cccnc3)CC2)nc1-c1nc2ccccc2[nH]1
> 7.00

Request the reported pKi associated with Nc1ncc(N2CCN(c3nccs3)CC2)nc1-c1nc2ccccc2[nH]1
6.00 to 7.00

Request the reported pKi associated with COCC(=O)N1CCN(c2cnc(N)c(-c3nc4ccccc4[nH]3)n2)CC1
5.00 to 6.00
